Each record here notes measured CC50 at 3 days.
experiment: CC50 assay (CellTiter-Glo) in Huh-7 HCV replicon cells; assay type: cell-based, human; details: human, 3 days incubation, CellTiter-Glo luminescence, read-out: CC50 (50% cytostatic concentration)

Past entries and their recorded results:
{"COMPOUND": "Nc1nc(N2CCOCC2)c2cc(-c3ccc(F)cc3)ccc2n1 [Example 28]", "CC50 at 3 days": "< 10 µM"}
{"COMPOUND": "Fc1ccc(-c2ccc3ncnc(N4CCOCC4)c3c2)cc1 [Example 37]", "CC50 at 3 days": "> 20 µM"}
{"COMPOUND": "Nc1nc(Nc2ccccc2)c2cc(-c3ccc(F)cc3)ccc2n1 [Example 48]", "CC50 at 3 days": "< 10 µM"}
{"COMPOUND": "Cn1ccc(Nc2nc(NC3CC3)c3cc(-c4ccc(F)cc4)ccc3n2)n1 [Example 54]", "CC50 at 3 days": "< 10 µM"}
{"COMPOUND": "Fc1ccc(-c2ccc3ncnc(NC4CC4)c3c2)cc1 [Example 47]", "CC50 at 3 days": "> 20 µM"}

INPUT: # query: CC50 at 3 days of entry COc1ccc(-c2ccc3nc(N)nc(N4CCOCC4)c3c2)cc1OC [Example 14]
OUTPUT: < 10 µM

INPUT: Next compound: Nc1ncnc2ccc(-c3ccc(F)cc3)cc12 [Example 39, 4-amino-6-(4-fluorophenyl)-quinazoline]
OUTPUT: > 20 µM

INPUT: Next compound: Nc1nc(N2CCOCC2)c2cc(-c3ccc(Cl)cc3)ccc2n1 [Example 27]
OUTPUT: 10 to 20 µM

INPUT: Next compound: CC(=O)Nc1ccc(-c2ccc3nc(N)nc(N4CCN(C(C)=O)CC4)c3c2)cc1 [Example 32]
OUTPUT: > 20 µM

INPUT: Next compound: CC(=O)Nc1ccc(-c2ccc3nc(N)nc(N4CCCCC4)c3c2)cc1 [Example 31]
OUTPUT: 10 to 20 µM

INPUT: Next compound: NS(=O)(=O)c1ccc(CNc2nc(NCC(F)(F)F)c3cc(-c4ccc(F)cc4)ccc3n2)cc1 [Example 52]
OUTPUT: < 10 µM

INPUT: Next compound: CC(=O)Nc1ccc(-c2ccc3nc(N)nc(N4CCN(C)CC4)c3c2)cc1 [Example 34]
OUTPUT: 10 to 20 µM

INPUT: Next compound: NS(=O)(=O)c1ccc(CNc2nc(NCC(F)(F)F)c3cc(-c4ccc(C(=O)NC5CC5)cc4)ccc3n2)cc1 [Example 51]
OUTPUT: > 20 µM

INPUT: Next compound: CC(=O)Nc1ccc(-c2ccc3nc(N)nc(N4CCOCC4)c3c2)cc1 [Example 30]
OUTPUT: 10 to 20 µM

INPUT: Next compound: CN(C)c1ncnc2ccc(-c3ccc(F)cc3)cc12 [Example 45]
OUTPUT: > 20 µM

INPUT: Next compound: CCCNc1ncnc2ccc(-c3ccc(F)cc3)cc12 [Example 43]
OUTPUT: > 20 µM

INPUT: Next compound: COc1ccc(-c2ccc3nc(N)nc(Nc4cccc(Br)c4)c3c2)cc1OC [Example 16]
OUTPUT: > 20 µM

Values from patent US9259426B2
